measurement.target: Menin (Homo sapiens) (UniProt O00255)
Sequence (O00255 whole entry, looked up): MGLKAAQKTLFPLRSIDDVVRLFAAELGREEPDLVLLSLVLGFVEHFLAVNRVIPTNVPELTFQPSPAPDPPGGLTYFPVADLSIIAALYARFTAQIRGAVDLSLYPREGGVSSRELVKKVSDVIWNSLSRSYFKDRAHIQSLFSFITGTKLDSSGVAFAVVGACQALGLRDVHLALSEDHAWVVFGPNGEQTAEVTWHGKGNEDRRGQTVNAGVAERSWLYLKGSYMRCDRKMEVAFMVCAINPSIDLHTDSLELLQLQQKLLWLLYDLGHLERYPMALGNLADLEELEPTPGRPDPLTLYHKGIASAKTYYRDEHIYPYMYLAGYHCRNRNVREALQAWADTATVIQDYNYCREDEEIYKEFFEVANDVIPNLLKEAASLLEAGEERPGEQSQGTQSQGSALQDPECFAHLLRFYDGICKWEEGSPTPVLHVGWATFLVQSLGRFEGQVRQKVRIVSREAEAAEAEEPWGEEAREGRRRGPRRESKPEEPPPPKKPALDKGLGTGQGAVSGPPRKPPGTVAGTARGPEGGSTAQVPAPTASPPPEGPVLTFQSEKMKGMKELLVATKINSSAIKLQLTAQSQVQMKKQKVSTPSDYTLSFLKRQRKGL
run.description: Confirmation of Inhibitors Targeting the Menin-MLL Interaction in MLL Related Leukemias: NMR spectroscopy to verify direct binding of compounds to menin
reported.conditions: purified menin, NMR STD binding, 100 uM
Active and inactive are the calls of the source.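 How the source made its calls: active means compound whose NMR saturation transfer difference test with menin is positive, showing direct binding to the protein; inactive means the rest.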
Use one of these outcomes when replying: active, inactive

Returns: the outcome recorded for CN(C)C(CNc1ncnc2sc3c(c12)CCCCC3)c1ccco1 (stereo not given) in this assay.
active

Recorded test call requested for CCCC[n+]1c2ccccc2cc2ccccc21
inactive

Entry O=C(Nc1cc(Br)ccc1O)c1cc(-c2ccc3c(c2)OCO3)on1 : call = ?
inactive

Look up the recorded call for O=C(Nc1cc(Br)ccc1O)c1cc(-c2ccco2)on1 in this test.
inactive

Record request — test call for CCc1cc2c(N3CCN(c4nnc(CC)s4)CC3)ncnc2s1
inactive

Recorded call for O=C(COC(=O)c1ccc(NS(=O)(=O)c2cccs2)cc1)Nc1nc2c(F)c(F)c(F)cc2s1 ?
inactive

Test call for this molecule, please: COc1ccccc1C(=O)Nc1ccnn1C1CCN(CC2CC=CCC2)CC1 (stereo not given)
active

State the result this test recorded for Cc1sc2ncnc(NC3CCN(Cc4ccccc4)CC3)c2c1C .
active

State the result this test recorded for O=C(CCC1CCCCC1)NCCN1C2=NC[C@H](Cc3ccc(O)cc3)N2C[C@H]1Cc1ccc(O)cc1 .
active

Fill in: this test's call for CCc1cc2c(N3CCN(C(=O)c4ccco4)CC3)ncnc2s1 is ___
inactive

What did the test return for Cc1cc2[nH]c3c(c[n+](C)c4ccccc34)c2cc1C ?
inactive

What is the recorded call for this molecule in the test? COc1ccc(S(=O)(=O)Nc2cc(SCC(=O)O)c(O)c3ccccc23)cc1
inactive

Please let me know the test result on file for CC(=O)NC1C(=O)N(CCN2CCOCC2)c2ccc(Cl)cc21 (stereo not given) .
inactive

What call does the record list for COC(=O)c1ccccc1NC1=C/C(=N\S(=O)(=O)c2ccc(C(=O)O)cc2)c2ccccc2C1=O ?
inactive

Per the assay record, what outcome was assigned to COc1cc(-c2ccc(-[n+]3nc(-c4ccccc4)nn3-c3ccc([N+](=O)[O-])cc3)c(OC)c2)ccc1-[n+]1nc(-c2ccccc2)nn1-c1ccc([N+](=O)[O-])cc1 ?
inactive
